target: PARK7 (Homo sapiens, UniProt Q99497); assay: High-throughput screen of the crude compound library, PARK7 fluorescence polarization (FP) assay with FP reagent JYQ-107; assay type: biochemical; details: 1.25 µM, crude compound library, FP reagent JYQ-107; read-out: HTS FP assay %Inhibition (1.25 µM)
observation-type: inhibition at 1.25 µM (%)
Numeric answer only, unit % assumed.

> print(dat)
                                   molecule       observation.type  units.text  reported
1  Cn1c(=O)c2c(ncn2CC(=O)N2CCc3nc(NC(=O)[C@@H]4CCN(C#N)C4)sc3C2)n(C)c1=O [compound 405]  inhibition at 1.25 µM           %      67.9
2  N#CN1CC[C@@H](C(=O)Nc2nc3c(s2)CN(C(=O)Cc2csc(-c4ccccc4)n2)CC3)C1 [compound 346]  inhibition at 1.25 µM           %      61.9
3  CN1CCN(c2ccc(C(=O)N3CCc4nc(NC(=O)[C@@H]5CCN(C#N)C5)sc4C3)cc2)CC1 [compound 472]  inhibition at 1.25 µM           %      70.8
4  N#CN1CC[C@@H](C(=O)Nc2nc3c(s2)CN(C(=O)c2ccc(B(O)O)cc2)CC3)C1 [compound 407]  inhibition at 1.25 µM           %      58.7

API: the following record is the query input.
## Input Reported inhibition at 1.25 µM for Cc1cc(C(=O)N2CCc3nc(NC(=O)[C@@H]4CCN(C#N)C4)sc3C2)ccc1Br [Compound 415] : what is it?
## Output 93.1

====

Target: PARK7 (Homo sapiens)
Sequence (Q99497 1-189): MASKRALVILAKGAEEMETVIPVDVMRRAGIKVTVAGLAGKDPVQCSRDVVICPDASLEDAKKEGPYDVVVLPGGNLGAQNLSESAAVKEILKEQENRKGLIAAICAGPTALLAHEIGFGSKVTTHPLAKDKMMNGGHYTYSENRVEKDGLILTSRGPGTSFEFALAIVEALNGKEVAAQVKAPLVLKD
Test: High-throughput screen of the crude compound library, PARK7 fluorescence polarization (FP) assay with FP reagent JYQ-107
Assay type: biochemical
Details: 1.25 µM, crude compound library, FP reagent JYQ-107; read-out: HTS FP assay %Inhibition (1.25 µM)
observation-type: inhibition at 1.25 µM (%)
Give just the numeric value; % need not be written.

Example cases with answers are listed next.
> print(dat)
                                   molecule                target  reported
1  N#CN1CC[C@@H](C(=O)Nc2nc3c(s2)CN(C(=O)c2c(F)c(F)c(O)c(F)c2F)CC3)C1 [compound 442]  PARK7 (Homo sapiens)      51.4
2  N#CN1CC[C@@H](C(=O)Nc2nc3c(s2)CN(C(=O)c2nccc4ccccc24)CC3)C1 [compound 417]  PARK7 (Homo sapiens)      82.2
3  CC(C)(C)OC(=O)NCC(=O)N1CCc2nc(NC(=O)[C@@H]3CCN(C#N)C3)sc2C1 [compound 408]  PARK7 (Homo sapiens)      75.4
4  CC(=O)N1CCC(C(=O)N2CCc3nc(NC(=O)[C@@H]4CCN(C#N)C4)sc3C2)CC1 [compound 475]  PARK7 (Homo sapiens)      68.5
5  CC(C)(C)OC(=O)N1CC[C@H](C(=O)N2CCc3nc(NC(=O)[C@@H]4CCN(C#N)C4)sc3C2)C1 [compound 454]  PARK7 (Homo sapiens)      73.8

As a next step, examine the molecule that follows.
## Input Observed inhibition at 1.25 µM on PARK7 (Homo sapiens) for N#CN1CC[C@@H](C(=O)Nc2nc3c(s2)CN(C(=O)Cc2ccncc2)CC3)C1 [compound 404] , please.
## Output 58.2
